The values you see were collected from the RNAGym collection of RNA variant scans (doi:10.7554/elife.80360).

B1: HDV Ribozyme (parent)
chain: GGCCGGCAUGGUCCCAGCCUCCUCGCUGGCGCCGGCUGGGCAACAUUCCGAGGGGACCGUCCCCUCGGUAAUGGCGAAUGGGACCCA

- Variants of: B1
- protocol: self-cleavage, relative activity (ratio to wild type); higher = more cleavage; co-transcriptional
Reported self-cleavage by item:
recorded-metric: self-cleavage

| variant-notation | result |
| --- | --- |
| G40A U72G | 0.437 |
| G31A G81A | 0.14 |
| C26G A70U | 0.875 |
| U27C G53C | 0.898 |
| C57A U60C | 1.01 |
| G35U U65C | 0.434 |
| C44A A56U | 0.614 |
| G55A U65A | 1.06 |
| C15G G35A | 0.196 |
| G55A A70C | 1.06 |
| C22U U27C | 0.312 |
| U12G U47A | 0.776 |
| C33A A42C | 0.146 |
| C18G C19G | 0 |
| G38U U47G | 0.166 |
| C13A C49A | 0.0489 |
| C24U G52U | 0.694 |
| C14A A56U | 0.688 |
| G34C C44A | 0.0831 |
| C24A G25U | 0.277 |
| C48A A78G | 0.776 |
| G1U C15G | 0.0852 |
| C14G G29C | 0.0665 |
| G38U G39U | 0.0573 |
| A43C A45U | 0.554 |
| C3A G29A | 0.012 |
| C13A A70G | 0.166 |
| U46G C85G | 0.665 |
| C15A C36A | 0.0692 |
| A56G G59C | 1.3 |
| C19G U79G | 0.222 |
| C22U U60C | 0.767 |
| A43G A51G | 0.26 |
| U27C G59U | 0.76 |
| G68U C85A | 0.707 |
| U72C C85U | 0.511 |
| C32G U60C | 0.0723 |
| G34U A77U | 0.163 |
| G11C G29C | 0.0852 |
| C58G G73C | 0.582 |
| C13A C58G | 0.0639 |
| A51C C75U | 0.141 |
| U46C C58G | 0.582 |
| G39U A43C | 0.237 |
| C18U G80U | 0.0989 |
| C32G G73A | 0.0615 |
